experiment: Half life in dog at 8.3 mg/kg, iv; type: ADME, organism-based, Canis lupus familiaris; design: dose 8.3 mg/kg, route intravenous; settings: in vivo
observable: half-life
State the value, then name its unit.

Give a short answer stating reported half-life for Cc1cc2cc(N=C(NC#N)N[C@H]3CCCCN(CC(=O)N4CCCC4)C3=O)ccc2o1 .
10.3 h

----------
target: Cytochrome P450 3A4 (Homo sapiens); test: Inhibition of CYP3A4 using BFC as substrate; type: ADME
Sequence (P08684 whole entry): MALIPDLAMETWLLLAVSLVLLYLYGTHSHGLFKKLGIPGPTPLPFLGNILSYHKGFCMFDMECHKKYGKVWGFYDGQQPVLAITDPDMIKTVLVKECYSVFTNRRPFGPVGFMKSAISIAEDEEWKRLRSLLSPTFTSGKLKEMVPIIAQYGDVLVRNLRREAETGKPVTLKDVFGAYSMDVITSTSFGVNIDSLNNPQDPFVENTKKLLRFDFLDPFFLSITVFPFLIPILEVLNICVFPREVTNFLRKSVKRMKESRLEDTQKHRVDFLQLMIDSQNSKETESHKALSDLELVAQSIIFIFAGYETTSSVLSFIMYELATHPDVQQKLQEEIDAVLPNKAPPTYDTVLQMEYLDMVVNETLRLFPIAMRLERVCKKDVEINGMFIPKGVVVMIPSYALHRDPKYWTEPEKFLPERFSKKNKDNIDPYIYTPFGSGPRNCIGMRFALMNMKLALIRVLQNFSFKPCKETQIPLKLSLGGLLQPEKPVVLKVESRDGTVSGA
observable: pIC50
Scale note: pIC50 = -log10(concentration in M).

Quote pIC50 reported for Cc1cc2cc(N=C(NC#N)N[C@H]3CCCCN(CC(=O)N4CCCC4)C3=O)ccc2o1 please.
4.73

----------
target: Coagulation factor X (Homo sapiens)
Sequence (P00742 41-179 limits assumed): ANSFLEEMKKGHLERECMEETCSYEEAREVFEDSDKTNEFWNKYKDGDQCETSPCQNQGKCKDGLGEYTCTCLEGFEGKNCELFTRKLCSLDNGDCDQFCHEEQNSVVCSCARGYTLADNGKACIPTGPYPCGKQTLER
Sequence (P00742 235-488 limits assumed): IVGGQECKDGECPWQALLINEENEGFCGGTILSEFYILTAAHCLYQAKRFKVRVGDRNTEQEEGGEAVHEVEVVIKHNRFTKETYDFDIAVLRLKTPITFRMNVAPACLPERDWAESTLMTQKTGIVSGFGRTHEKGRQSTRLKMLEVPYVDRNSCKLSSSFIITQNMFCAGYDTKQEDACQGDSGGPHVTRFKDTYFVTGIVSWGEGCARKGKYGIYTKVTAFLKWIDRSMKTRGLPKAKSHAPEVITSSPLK
Each record here notes measured log10 of IC50.
// units: nM (pre-log); metric: IC50; scale: log10

The cases that follow already have their log10 of IC50 on record.
| molecule | target_under_test | log10 of IC50 |
| --- | --- | --- |
| Cc1cc2cc(N/C(=N\C#N)N[C@H]3CCCN(CC(=O)N4CCCC4)C3=O)ccc2o1 | Coagulation factor X (Homo sapiens) | 2.97 |
| Cc1cc2cc(N=C(NC#N)N[C@H]3CCCCN(CC(=O)N4CCCC4)C3=O)c(F)cc2o1 | Coagulation factor X (Homo sapiens) | 1.88 |
| Cc1nc2cc(N/C(=N\C#N)N[C@H]3CCCCN(CC(=O)N4CCCC4)C3=O)ccc2o1 | Coagulation factor X (Homo sapiens) | 3.43 |
| Cc1cc2ccc(N/C(=N\C#N)N[C@H]3CCCCN(CC(=O)N4CCCC4)C3=O)cc2[nH]1 | Coagulation factor X (Homo sapiens) | 3.11 |

Complete the entry with log10 of IC50 for Cc1cc2cc(N/C(=N\C#N)N[C@H]3CCCCN(CC(=O)N4CC5CC5C4)C3=O)ccc2o1 (some centres not stated)
1.18

----------
biological target: Cytochrome P450 2C9 (Homo sapiens, UniProt P11712); test: Inhibition of CYP2C9; assay type: ADME
Sequence (P11712 whole entry): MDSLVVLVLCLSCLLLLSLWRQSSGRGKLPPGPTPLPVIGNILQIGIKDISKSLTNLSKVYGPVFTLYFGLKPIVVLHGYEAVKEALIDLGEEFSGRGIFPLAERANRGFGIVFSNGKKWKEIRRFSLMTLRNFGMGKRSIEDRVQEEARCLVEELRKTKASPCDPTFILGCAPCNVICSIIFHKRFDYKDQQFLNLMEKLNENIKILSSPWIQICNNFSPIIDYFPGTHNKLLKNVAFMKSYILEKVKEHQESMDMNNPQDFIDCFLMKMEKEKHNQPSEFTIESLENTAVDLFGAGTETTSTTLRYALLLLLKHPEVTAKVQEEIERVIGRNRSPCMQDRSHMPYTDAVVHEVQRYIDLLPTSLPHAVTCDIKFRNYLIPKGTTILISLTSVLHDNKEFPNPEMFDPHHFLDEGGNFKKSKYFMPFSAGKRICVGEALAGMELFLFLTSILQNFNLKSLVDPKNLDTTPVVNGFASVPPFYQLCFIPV
observable: IC50
Report field: quantity (unit follows the number).

Recall and state the measured IC50 for Cc1cc2cc(N=C(NC#N)N[C@H]3CCCCN(CC(=O)N4CCCC4)C3=O)ccc2o1 .
29.2 µM

----------
test: Volume of distribution at steady state in monkey at 10 mg/kg, iv; type: ADME, organism-based, Macaca mulatta; design: dose 10 mg/kg, route intravenous; details: rhesus monkey, in vivo, read-out: Vdss
observable: Vd (L/kg)
Provide the reading as a plain figure in L/kg.

For the compound Cc1cc2cc(N=C(NC#N)N[C@H]3CCCCN(CC(=O)N4CCCC4)C3=O)ccc2o1 , give its measured Vd value.
1.8

----------
molecular target: Cytochrome P450 2C19 (Homo sapiens); experiment: Inhibition of CYP2C19 in human TC5 cells; format: ADME, cell-based
Sequence (P33261 whole entry): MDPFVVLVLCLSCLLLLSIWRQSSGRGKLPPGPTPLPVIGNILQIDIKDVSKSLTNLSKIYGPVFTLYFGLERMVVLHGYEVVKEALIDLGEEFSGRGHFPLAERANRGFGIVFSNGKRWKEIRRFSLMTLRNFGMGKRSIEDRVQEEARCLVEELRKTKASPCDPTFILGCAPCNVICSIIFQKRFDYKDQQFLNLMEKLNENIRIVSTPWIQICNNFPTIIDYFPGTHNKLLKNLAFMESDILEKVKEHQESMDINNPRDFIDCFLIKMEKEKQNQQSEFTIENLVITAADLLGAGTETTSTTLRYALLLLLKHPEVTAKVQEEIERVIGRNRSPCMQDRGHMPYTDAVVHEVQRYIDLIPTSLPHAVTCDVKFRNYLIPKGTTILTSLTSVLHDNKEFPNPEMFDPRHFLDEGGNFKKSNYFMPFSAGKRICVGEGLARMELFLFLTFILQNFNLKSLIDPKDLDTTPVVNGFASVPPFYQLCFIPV
pIC50: −log10 of the molar value.
observable: pIC50

Retrieve pIC50 on Cytochrome P450 2C19 (Homo sapiens); query Cc1cc2cc(N=C(NC#N)N[C@H]3CCCCN(CC(=O)N4CCCC4)C3=O)ccc2o1
< 3.70

----------
tested on: Rhesus monkey; test: Total clearance in monkey at 10 mg/kg, iv; type: ADME, organism-based, Macaca mulatta; design: dose 10 mg/kg, route intravenous; conditions: in vivo
observable: clearance (mL/min/kg)
Write the number in mL/min/kg without appending the unit.

Answer with the recorded clearance of Cc1cc2cc(N=C(NC#N)N[C@H]3CCCCN(CC(=O)N4CCCC4)C3=O)ccc2o1 only.
2.2

----------
target: Coagulation factor X (Homo sapiens)
observable: IC50 (nM)
Kindly provide the numeric value in nM only, without the unit symbol.

Sample answers from the record:
| compound | IC50 / nM |
| --- | --- |
| Cc1cc2cc(N/C(=N\C#N)N[C@H]3CCCCN(CC(=O)N4C5CCC4CNC5)C3=O)ccc2o1 | 5 |
| COc1cc(N=C(NC#N)N[C@H]2CCCCN(CC(=O)N3CCCC3)C2=O)cc2cc(C)oc12 | 14800 |
| Cc1nc2ccc(N/C(=N\C#N)N[C@H]3CCCCN(CC(=O)N4CCCC4)C3=O)cc2o1 | 18800 |
| Cc1cc2cc(N/C(=N\C#N)N[C@H]3CCCCN(CC(=O)N4CCC(Cc5ccccc5)C4)C3=O)ccc2o1 (some centres undefined) | 53 |
| Cc1cc2cc(N/C(=N\C#N)N[C@H]3CCCCN(CC(=O)N4CCC[C@@H]4CN)C3=O)ccc2o1 | 22 |

Under Coagulation factor X (Homo sapiens): report IC50 of Cc1cc2cc(N/C(=N\C#N)N[C@H]3CCCCN(CC(=O)N4CCCC4Cc4ccccc4)C3=O)ccc2o1 (some centres undefined) .
19

Answer with IC50 of CC(=O)NC[C@H]1CCCN1C(=O)CN1CCCC[C@H](N/C(=N\C#N)Nc2ccc3oc(C)cc3c2)C1=O measured for Coagulation factor X (Homo sapiens).
28

Recall the reported IC50 of Cc1cc2cc(N=C(NC#N)N[C@@H]3CCN(CC(=O)N4CCCC4)C3=O)ccc2o1 on Coagulation factor X (Homo sapiens) and write it down.
30000

Under Coagulation factor X (Homo sapiens): report IC50 of Cc1cc2c(F)c(N/C(=N\C#N)N[C@H]3CCCCN(CC(=O)N4CCCC4)C3=O)ccc2o1 .
2730

----------
molecular target: Cytochrome P450 2D6 (Homo sapiens, UniProt P10635); assay: Inhibition of CYP2D6 in human TC5 cells; format: ADME, cell-based
Sequence (P10635 whole entry): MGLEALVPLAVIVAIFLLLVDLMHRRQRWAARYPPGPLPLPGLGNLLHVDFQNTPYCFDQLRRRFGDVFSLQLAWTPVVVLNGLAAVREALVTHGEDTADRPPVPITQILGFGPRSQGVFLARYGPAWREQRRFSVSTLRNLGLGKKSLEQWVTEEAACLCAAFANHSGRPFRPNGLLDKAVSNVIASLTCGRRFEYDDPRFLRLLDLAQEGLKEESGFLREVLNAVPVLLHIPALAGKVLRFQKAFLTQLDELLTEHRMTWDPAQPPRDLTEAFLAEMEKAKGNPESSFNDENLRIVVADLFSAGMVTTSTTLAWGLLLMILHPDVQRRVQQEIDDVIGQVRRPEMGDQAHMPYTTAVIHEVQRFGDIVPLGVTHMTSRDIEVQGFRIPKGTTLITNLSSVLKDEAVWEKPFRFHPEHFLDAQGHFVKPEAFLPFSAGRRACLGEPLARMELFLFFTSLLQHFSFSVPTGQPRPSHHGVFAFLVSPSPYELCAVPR
pIC50: −log10 of the molar value.
observable: pIC50

Give the reported pIC50 for this molecule. Cc1cc2cc(N=C(NC#N)N[C@H]3CCCCN(CC(=O)N4CCCC4)C3=O)ccc2o1
< 3.70

----------
molecular target: Nuclear receptor subfamily 1 group I member 2 (Homo sapiens, UniProt O75469); assay: Activity at PXR
Sequence (O75469 whole entry): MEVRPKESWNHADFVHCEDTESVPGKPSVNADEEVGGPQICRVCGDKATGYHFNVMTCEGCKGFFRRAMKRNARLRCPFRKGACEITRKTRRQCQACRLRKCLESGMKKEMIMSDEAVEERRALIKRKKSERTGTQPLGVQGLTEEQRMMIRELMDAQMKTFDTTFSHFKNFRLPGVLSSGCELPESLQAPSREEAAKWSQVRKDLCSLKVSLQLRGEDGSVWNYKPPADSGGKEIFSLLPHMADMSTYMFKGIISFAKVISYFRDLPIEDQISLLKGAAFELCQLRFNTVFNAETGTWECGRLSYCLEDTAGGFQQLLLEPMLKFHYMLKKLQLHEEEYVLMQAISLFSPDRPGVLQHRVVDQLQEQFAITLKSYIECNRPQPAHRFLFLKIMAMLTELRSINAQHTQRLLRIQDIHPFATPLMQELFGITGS
observable: EC50

// fetch EC50 given entry Cc1cc2cc(N=C(NC#N)N[C@H]3CCCCN(CC(=O)N4CCCC4)C3=O)ccc2o1
> 25 µM

----------
experiment: Oral Bioavailability in rat at 10 mg/kg; format: ADME, organism-based; details: in vivo
observable: bioavailability (%)
Quick note: give the figure in %, leave out the unit.

// fetch bioavailability given entry Cc1cc2cc(N=C(NC#N)N[C@H]3CCCCN(CC(=O)N4CCCC4)C3=O)ccc2o1
50

----------
assay: Volume of distribution at steady state in dog at 8.3 mg/kg, iv; type: ADME, organism-based, Canis lupus familiaris; design: dose 8.3 mg/kg, route intravenous; settings: in vivo, read-out: Vdss
observable: Vd (L/kg)
Express your answer in L/kg, writing the number without its unit.

Consider the compound Cc1cc2cc(N=C(NC#N)N[C@H]3CCCCN(CC(=O)N4CCCC4)C3=O)ccc2o1 and give its recorded Vd.
0.11

----------
molecular target: Cytochrome P450 3A4 (Homo sapiens); assay: Inhibition of CYP3A4 using BZR as substrate; assay type: ADME
pIC50: −log10 of the molar value.
observable: pIC50

Look up and report measured pIC50 for this entry: Cc1cc2cc(N=C(NC#N)N[C@H]3CCCCN(CC(=O)N4CCCC4)C3=O)ccc2o1
< 4.40

----------
molecular target: Cytochrome P450 2C19 (Homo sapiens); assay: Inhibition of CYP2C19; type: ADME
pIC50: −log10 of the molar value.
observable: pIC50

Tell me pIC50 reported for Cc1cc2cc(N=C(NC#N)N[C@H]3CCCCN(CC(=O)N4CCCC4)C3=O)ccc2o1
< 4.40

----------
assay: Mean residence time in monkey at 10 mg/kg, iv; assay type: ADME, organism-based, Macaca mulatta; set-up: dose 10 mg/kg, route intravenous; settings: rhesus monkey, in vivo
observable: MRT (h)
Express it in h; write the number only.

Using the record for Cc1cc2cc(N=C(NC#N)N[C@H]3CCCCN(CC(=O)N4CCCC4)C3=O)ccc2o1 , state its measured MRT.
1.5

----------
biological target: Cytochrome P450 2C9 (Homo sapiens, UniProt P11712); experiment: Inhibition of CYP2C9 in human TC5 cells; assay type: ADME, cell-based
observable: IC50

Specify reported IC50 for the molecule shown: Cc1cc2cc(N=C(NC#N)N[C@H]3CCCCN(CC(=O)N4CCCC4)C3=O)ccc2o1
> 200 µM

----------
target: Vitamin K-dependent protein C (Homo sapiens, UniProt P04070); test: Inhibition of activated protein C
Sequence (P04070 43-197 limits assumed): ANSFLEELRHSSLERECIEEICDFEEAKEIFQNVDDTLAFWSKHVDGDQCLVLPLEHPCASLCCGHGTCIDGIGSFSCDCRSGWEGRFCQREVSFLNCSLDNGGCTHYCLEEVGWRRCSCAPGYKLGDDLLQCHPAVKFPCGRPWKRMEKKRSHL
Sequence (P04070 212-461 limits assumed): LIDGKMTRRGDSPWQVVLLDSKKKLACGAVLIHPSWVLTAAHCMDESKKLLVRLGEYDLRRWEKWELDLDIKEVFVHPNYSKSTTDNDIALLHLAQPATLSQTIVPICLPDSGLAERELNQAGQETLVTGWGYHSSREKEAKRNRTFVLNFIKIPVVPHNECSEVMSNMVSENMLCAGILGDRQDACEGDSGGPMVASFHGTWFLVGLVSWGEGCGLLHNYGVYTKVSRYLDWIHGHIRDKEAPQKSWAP
observable: Ki

Give recorded Ki. Cc1cc2cc(N=C(NC#N)N[C@H]3CCCCN(CC(=O)N4CCCC4)C3=O)ccc2o1
> 18 µM

----------
For reference, IC50 measured on Coagulation factor X (Homo sapiens):
Answer with a number only, understood to be in nM.

| cpd_smiles | unit | observed_measurement |
| --- | --- | --- |
| CC(=O)NC[C@@H]1CCCN1C(=O)CN1CCCC[C@H](N/C(=N\C#N)Nc2ccc3oc(C)cc3c2)C1=O | nM | 54 |
| Cc1oc2ccc(N=C(NC#N)N[C@H]3CCCCN(CC(=O)N4CCCC4)C3=O)cc2c1C | nM | 349 |

With those in mind, consider the next compound.
Answer with reported IC50 of Cc1cc2cc(N/C(=N\C#N)N[C@H]3CCCCN(CC(=O)N4CCCC4)C3=O)cc(C(F)(F)F)c2o1
167
